This collection of values is drawn from PubChem BioAssay (NCATS).

Molecular target: Lysine-specific demethylase 5B (Homo sapiens)
Assay: Optimization screen for KDM5B Histone Demethylases FDH coupled qHTS against the LOPAC library (AID 1347166)
Settings: KDM5B demethylation, FDH-coupled NADH fluorescence (FDH is formaldehyde dehydrogenase); at 57.5 µM (top of the series)
Results filed as inconclusive are left out. The source made the active and inactive calls. The call rests on the fitted dose curve; in most records, active means well fitted inhibition curve with a large enough effect; inconclusive means small, poorly fitted or top-dose-only effect; inactive means flat fitted curve, though single readings scatter.
// one of Y = active, N = inactive, no free text

Exam item: Test call, this compound: CCCc1c(OCCCOc2ccc(OCC(=O)O)cc2)ccc(C(C)=O)c1O
Marked response: N

Exam item: Record lookup: outcome of this test for O=C1Nc2ccc(I)cc2/C1=C/c1cc(Br)c(O)c(Br)c1 ?
Marked response: N

Exam item: Just curious, what result did C[N+](C)(C)CC=O get here?
Marked response: N

Exam item: I'd appreciate the recorded outcome for CC1CCN(CC[C@H]2CCCN2S(=O)(=O)c2cccc(O)c2)CC1 from this test.
Marked response: N

Exam item: Which outcome did this test record for the compound COc1cc(C(O)CO)ccc1O (stereo not given) ?
Marked response: N

Exam item: Can you look up the reported call for c1ccc2c(c1)CCC[C@H]2Nc1nc2ccccc2[nH]1 for me?
Marked response: N

Exam item: Kindly provide the recorded test outcome for the following compound: NC(=O)c1ccccc1
Marked response: N

Exam item: Please let me know the test result on file for N[C@@H](CCCC(=O)O)C(=O)O .
Marked response: N

Exam item: Per the records of this test, what outcome belongs to Nc1nc2c(nc(Br)n2C2OC3COP(=O)(O)O[C@@H]3C2O)c(=O)[nH]1 (stereo not given in full) ?
Marked response: N

Exam item: Record request — test call for Cn1cc(C(=O)OCC2CCN(CCNS(C)(=O)=O)CC2)c2ccccc21
Marked response: N

Exam item: For N#CC(=C(\N)Sc1ccccc1N)/C(C#N)=C(/N)Sc1ccccc1N , what call appears in the results of this test?
Marked response: N

Exam item: Per the assay record, what outcome was assigned to CN(C)S(=O)(=O)c1ccc2c(c1)/C(=C/c1cc3c([nH]1)CCCC3)C(=O)N2 ?
Marked response: N

Exam item: Write down the call the test reported for this compound. Item: NOCC(=O)O
Marked response: N

Exam item: Write down the call the test reported for this compound. Item: CC(=O)/C(C)=N/O
Marked response: N

Exam item: Record request — test call for O=C(O)C1CCCNC1 (stereo not given)
Marked response: N

Exam item: Answer briefly: the call reported for O=C1NC(=O)c2cc(Nc3ccccc3)c(Nc3ccccc3)cc21 in this assay.
Marked response: N

Exam item: What call does the record list for CN1CCC2(CCN3CCc4c(oc5ccccc45)C3C2)N(C)C1=O (stereo not given) ?
Marked response: N

Exam item: Which outcome did this test record for the compound O=c1[nH]c2cc(Cl)ccc2c(O)c1-c1ccc(Oc2ccccc2)cc1 ?
Marked response: N

Exam item: Call for entry OC[C@H]1O[C@@H](n2cnc3cncnc32)[C@H](O)[C@@H]1O :
Marked response: N

Exam item: Recorded call for CCCn1c(=O)c(C)cn2nc(N)nc12 ?
Marked response: Y

Exam item: How was CNc1ncnc2c1ncn2[C@H]1C[C@H](OP(=O)(O)O)[C@@H](COP(=O)(O)O)O1 classified in this test?
Marked response: N

Exam item: Which outcome was entered for the compound CC(C)(C)NCC(O)COc1cccc2[nH]c(=O)[nH]c12 (stereo not given) in this test?
Marked response: N

Exam item: // return assay outcome for CCOC(=O)C12CC1/C(=N/O)c1ccccc1O2 (stereo not given)
Marked response: N

Exam item: Test call for this compound, please: NCCC1CCCC(CCN)N1 (stereo not given)
Marked response: N

Exam item: What call does the record list for Cn1cc(C(F)(F)F)nc1-c1ccc(OCC(O)CNCCOc2ccc(O)c(C(N)=O)c2)cc1 (stereo not given) ?
Marked response: N
